Listed molecules paired with reported melting point
API: value field is a number in °C; no unit string.

Some solved cases for reference:
molecule	melting point [°C]
O=C(O)c1cc(C(F)(F)F)ccc1C(F)(F)F	79
Cc1c(N)cccc1C(F)(F)F	39
Clc1cc(Cl)c2c(c1)Oc1cc(Cl)c(Cl)cc1O2	194

State the recorded melting point for this entry: CCCCCCCCCCCCCCCC(C)O (configuration not stated)
54

State the recorded melting point for this entry: `CCOP(=O)(N=C1SCCS1)OCC`
41

State the recorded melting point for this entry: O=[N+]([O-])c1cccc2c1cnn2C1CC(O)C(CO)O1 (configuration not stated)
140

State the recorded melting point for this entry: `CNC(=O)N(C)C`
75.5

###

Listed compounds paired with reported melting point
API: value field is a number in °C; no unit string.

Some solved cases for reference:
compound	melting point (°C)
COC(=O)c1ccccc1CC#N	48
Nc1ccc(C(=O)O)c(N)c1	140
O=C(O)c1cc2cc(Br)ccc2oc1=O	195
Cc1ccc(C(=O)c2ccccc2C(=O)O)cc1	146
O=C1C=CC2C3C=CC(C3)C12 (stereo not drawn)	56

State the recorded melting point for this entry: CC(C)NCC(O)c1cc(O)cc(O)c1 (stereo not drawn)
100

State the recorded melting point for this entry: `NC(=O)c1ccc(F)c(F)c1`
134

State the recorded melting point for this entry: `Clc1c(Cl)c(Cl)c2c(c1Cl)OC(c1ccccc1)(c1ccccc1)O2`
153

###

Listed compounds paired with reported melting point
API: value field is a number in °C; no unit string.

compound	melting point (°C)
Cc1cc(C(F)(F)F)n2nc(N)c(/N=N/c3cc(Cl)ccc3Cl)c2n1	215

State the recorded melting point for this entry: `Cc1ccc(C#N)cc1Br`
41

State the recorded melting point for this entry: CCCCCCCCCCCCC(Br)C(=O)O (configuration not stated)
42

State the recorded melting point for this entry: Oc1ccc(-c2nnc3n2NC(c2ccccc2O)S3)cc1 (configuration not stated)
241

State the recorded melting point for this entry: CCOC(O)C(Cl)(Cl)Cl (configuration not stated)
56.5

###

Answer Not met if melting point is under 100 °C, and Met if it is 100 °C or more.

compound	classification
O=C(C(Br)Br)C(Br)(Br)Br	Not met
CC(CCC(=O)NCC(=O)O)C1CCC2C3C(O)CC4CC(O)CCC4(C)C3CC(O)C12C (stereo unspecified)	Met
COC(=O)C1CCC(C)(C(C)(C)O)OC1(C)C (stereo unspecified)	Met
CCC(=C(c1ccccc1)c1ccc(OCCN(C)C)cc1)c1ccccc1	Not met
Nc1c(C=O)cc(C=O)c2nc(-c3ccccc3)c(-c3ccccc3)nc12	Met

Is melting point at least 100 °C? Consider `CC(C)(C)SC(C)(C)C`
Not met

Is melting point at least 100 °C? Consider `Oc1ccc(Cl)nc1`
Met

Is melting point at least 100 °C? Consider `O=C(CNc1ccccc1)Nc1ccc(Br)cc1`
Met

Is melting point at least 100 °C? Consider `Cc1ccc(-c2csc(/C(C#N)=N/Nc3ccc(F)cc3)n2)cc1`
Met

Is melting point at least 100 °C? Consider `O=C(O)c1ccc(SSc2ccc(C(=O)O)cc2[N+](=O)[O-])c([N+](=O)[O-])c1`
Met

Is melting point at least 100 °C? Consider `O=C(CCCNC(=O)CCCCC(=O)NCCCC(=O)NO)NO`
Met

Is melting point at least 100 °C? Consider `COc1ccc(C(C)=O)c(OC)c1OC`
Not met

Is melting point at least 100 °C? Consider `CC(C)N1CSc2nnc(-c3ccc([N+](=O)[O-])cc3)n2C1`
Met

Is melting point at least 100 °C? Consider `O=[N+]([O-])c1ccc(C=NN(c2ccccc2)P(=O)(N2CC2)N2CC2)cc1`
Met

###

reported.metric: melting point

Some solved cases for reference:
Clc1ccc2c(c1)C(c1ccccc1)=NCc1nncn1-2 228 °C
Cc1cc(C)n(CN(Cn2nc(C)cc2C)c2ccc(N(Cn3nc(C)cc3C)Cn3nc(C)cc3C)cc2)n1 175 °C

State the recorded melting point for this entry: `Cc1cc(CCl)c(CCl)cc1C`
104 to 106 °C

State the recorded melting point for this entry: `O=C1c2ccc(C(Br)Br)c([N+](=O)[O-])c2C(=O)c2c(Cl)c(Cl)c(Cl)c(Cl)c21`
246 to 248 °C

State the recorded melting point for this entry: `Nc1ccc(Cl)nc1`
83 °C

###

Listed compounds paired with reported melting point
API: value field is a number in °C; no unit string.

compound	value
Cc1c(C)c(C)c(CCl)c(CCl)c1C	135
Nc1nn2c(C(F)(F)F)cc(-c3cccs3)nc2c1/N=N/c1ccc(F)cc1	220
CNC(=C[N+](=O)[O-])NCCSCc1ccc(CN(C)C)o1	69
Cc1ccc(N=C(CNc2ccc(C)cc2)Nc2ccc(C)cc2)cc1	136
CC(=O)N(C(C)=O)c1cc([N+](=O)[O-])c(/C=C/c2ccccc2)c([N+](=O)[O-])c1/C=C/c1ccccc1	175

State the recorded melting point for this entry: `N#C/C(=N\Nc1cccc(C(=O)O)c1)c1nc2ccccc2s1`
200

State the recorded melting point for this entry: `Oc1ccc2ccncc2c1`
227

State the recorded melting point for this entry: `CCCOCCO`
-70

State the recorded melting point for this entry: `N#CC#N`
-27.9

State the recorded melting point for this entry: `O=C(Nc1ccc([N+](=O)[O-])cc1[N+](=O)[O-])C(C(F)(F)F)(C(F)(F)F)C(F)(F)F`
164

State the recorded melting point for this entry: CC(=O)OCC(=O)C1(O)CCC2C3CC(C)C4=CC(=O)C=CC4(C)C3C(O)CC21C (stereo not given)
206

State the recorded melting point for this entry: `CCCCCCCCCCCCCCCCCCI`
34

###

Listed compounds paired with reported melting point
API: value field is a number in °C; no unit string.

Some solved cases for reference:
compound	value
CC(=O)NC(N)=O	218
CCOP(=O)(O)C(N)=O	174
COc1ccc(OC)c(N=C=S)c1	36
O=S(=O)(Cl)c1cc(Cl)ccc1F	43
O=C(O)c1cccc(OOCl)c1	92
CCOC(=O)C=Cc1ccccc1	7

State the recorded melting point for this entry: `NNC(=O)c1ccc(Cl)nc1`
250

State the recorded melting point for this entry: `c1cc2cc3ccc4c(c3nc2c2c1NCOC2)COCN4`
235

State the recorded melting point for this entry: `Cn1ncc2c(NNC3=CC(=O)c4ccccc4C3=O)ncnc21`
226

State the recorded melting point for this entry: `O=C1C=CC2=CC(=O)C=CC(=C1)C2`
122

State the recorded melting point for this entry: `CCCCC(CC)(CO)CO`
43.8

State the recorded melting point for this entry: `N#CCS(=O)(=O)c1ccc(Cl)cc1`
171

###

Using melting point as the sorting value, the categories are low bracket (below 100 °C), middle bracket (100 °C to below 200 °C), high bracket (200 °C or more)

Solved entries:
compound	classification
NC(=O)NN=C(O)Cc1ccccc1	middle bracket
COc1ccc(C(C#N)C(C)=O)c(Cl)c1 (stereo not given)	low bracket
CC(=O)Nc1ccc(-c2ccc(NC(C)=O)cc2NC(C)=O)c(NC(C)=O)c1	high bracket
CCCCCCNC	low bracket
CC(C)S(=O)(=O)c1csc(C(=O)O)c1N	middle bracket
FC(F)(F)c1ccccc1-n1ccnc1	low bracket

Hello team, could you let me know which band the following compound falls into: `CC(=O)N1C(=O)[C@@](O)([C@H]2c3ccccc3O[C@@H]2Cl)c2ccccc21`
middle bracket

Hello team, could you let me know which band the following compound falls into: `Clc1ccc2ccccc2c1`
low bracket

Hello team, could you let me know which band the following compound falls into: `CC(C)N1C(=O)N(c2ccccc2)CSC1=NC(C)(C)C`
middle bracket

Hello team, could you let me know which band the following compound falls into: CCN1CCN(C(=O)NC(C(=O)NC2C(=O)N3C(C(=O)O)=C(CSc4nnnn4C)CSC23)c2ccc(O)cc2)C(=O)C1=O (stereo not given)
middle bracket

Hello team, could you let me know which band the following compound falls into: N#Cc1ccc(C(Cl)C(Cl)c2ccc(C(Cl)C(Cl)c3ccc(C#N)cc3[N+](=O)[O-])cc2)c([N+](=O)[O-])c1 (stereo not given)
high bracket

Hello team, could you let me know which band the following compound falls into: `Cc1ccc(S(=O)(=O)C#N)cc1`
low bracket

Hello team, could you let me know which band the following compound falls into: `CCCCCCCCCCCCCCCCCC(=O)Nc1ccc(O)cc1`
middle bracket

Hello team, could you let me know which band the following compound falls into: `FC(F)(F)c1ccc2c(c1)Nc1ccccc1S2`
middle bracket

Hello team, could you let me know which band the following compound falls into: Cc1cc(O)c(C2CC3CCC2(C)C3(C)C)cc1C (stereo not given)
low bracket

Hello team, could you let me know which band the following compound falls into: `Cc1c[nH]c(C)n1`
low bracket

Hello team, could you let me know which band the following compound falls into: `Cn1c(=O)c(C2=NNC(=O)C2=CC=Cc2ccccc2)c(O)c2ccccc21`
high bracket

Hello team, could you let me know which band the following compound falls into: `Cc1c(S(=O)(=O)Cl)sc2ccc(Cl)cc12`
middle bracket

Hello team, could you let me know which band the following compound falls into: `CCOc1ccc(-c2ccc(OCC)cc2)cc1`
middle bracket
